assayed target: MCH receptor (Homo sapiens, UniProt Q99705)
Construct: expressed in transfected cells; host or cells: CHO cells (membranes)
Sequence (Q99705 whole entry): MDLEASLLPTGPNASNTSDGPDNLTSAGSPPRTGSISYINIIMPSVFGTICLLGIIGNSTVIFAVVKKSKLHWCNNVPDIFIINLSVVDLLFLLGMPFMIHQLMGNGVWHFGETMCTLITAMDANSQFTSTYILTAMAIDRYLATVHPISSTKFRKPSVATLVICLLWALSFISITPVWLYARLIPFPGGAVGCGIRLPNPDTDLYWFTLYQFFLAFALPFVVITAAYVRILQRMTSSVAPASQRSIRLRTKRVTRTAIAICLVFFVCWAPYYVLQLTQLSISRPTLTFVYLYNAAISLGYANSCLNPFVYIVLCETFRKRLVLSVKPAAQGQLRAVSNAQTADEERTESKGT
method: MCH Receptor Binding Assay
assay context: Table 1b, preferred compounds; read-out: MCH R1 Ki
Protocol: MCH Receptor Binding Assay: Membranes from CHO cells expressing the MCH receptor were prepared by lysing cells with 5 mM HEPES for 15 min at 4C. Cell lysates were centrifuged ([…], 15 min) and the pellet was resuspended in 5 mM HEPES. […] Nonspecific binding was determined by including 1 μM MCH in the binding reaction. […] Plates were then analyzed in a TOPCOUNT microplate scintillation counter (Packard). Data was analyzed and Ki values were determined using GraphPad Prim.
metric name: Ki (nM)

Worked cases, Ki given:
| compound | metric name | unit tag | value measured |
| --- | --- | --- | --- |
| N#Cc1cccc([C@]23CC[C@@H](N(CCN4CC[C@@H](O)C4)C(=O)Nc4ccc(F)c(C(F)(F)F)c4)[C@H]2C3)c1 [drawing 636] | Ki | nM | 11 |
| CC(=O)Nc1cccc([C@@]23CC[C@@H](N(CCN4CCCC4)C(=O)Nc4ccc(F)c(C(F)(F)F)c4)CC2C3)c1 (stereo partly shown) | Ki | nM | 4.6 |

1. N#Cc1cccc([C@@]23CC[C@@H](N(CC4CCN(S(=O)(=O)N5CCOCC5)CC4)C(=O)Nc4ccc(F)c(F)c4)CC2C3)c1 (stereo partly shown)
2. N#Cc1cccc([C@@]23CC[C@@H](N(CCCN4CCCC4)C(=O)Nc4ccc(F)c(F)c4)CC2C3)c1 (stereo partly shown)
3. N#Cc1cccc([C@]23CC[C@@H](N(CCN4CCCCC4)C(=O)Nc4ccc(F)c(Cl)c4)[C@H]2C3)c1 [drawing 671]
4. CN1CCN(CCCN(C(=O)Nc2ccc(F)c(Cl)c2)[C@@H]2CC[C@]3(c4ccc(OC(F)(F)F)cc4)C[C@H]23)CC1
5. N#Cc1cccc([C@]23CC[C@H](N(CC4CCN(C5CCSC5)CC4)C(=O)Nc4ccc(F)c(Cl)c4)CC2C3)c1 (stereo partly shown)
# ascending order, key=Ki List labels; respect the requested ordering.
2, 3, 5, 4, 1

The measured values listed here are drawn from patent US7348328B2.
